# Target or test system: human MRGPRX2 (Homo sapiens, UniProt Q96LB1)
# Sequence (Q96LB1 whole entry): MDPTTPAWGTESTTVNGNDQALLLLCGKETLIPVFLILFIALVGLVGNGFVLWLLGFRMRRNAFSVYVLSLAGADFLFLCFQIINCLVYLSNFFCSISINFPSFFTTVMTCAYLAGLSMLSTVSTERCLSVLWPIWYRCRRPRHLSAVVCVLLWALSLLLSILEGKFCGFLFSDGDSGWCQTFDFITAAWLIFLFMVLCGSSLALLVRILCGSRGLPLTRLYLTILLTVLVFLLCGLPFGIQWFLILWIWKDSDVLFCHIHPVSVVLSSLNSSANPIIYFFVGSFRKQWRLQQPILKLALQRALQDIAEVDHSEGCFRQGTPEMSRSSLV
# Assay notes: Ca2+ mobilization assay (FLIPR TETRA): inhibition of Cortistatin-14 mediated MRGPRX2 activation
Measured quantity: IC50

• CC(C(=O)Nc1ccc(Oc2ccc(F)cc2)cn1)N1CCC(F)(F)C(c2c[nH]c(=O)c(CNCCO)c2)C1 (stereo not shown) = ≤ 10 nM
• C[C@@H](C(=O)Nc1ccc(F)cn1)N1CCC(F)(F)[C@@H](c2c[nH]c(=O)c(CC(F)(F)F)c2)C1 = 10 to 100 nM
• C[C@@H](C(=O)Nc1ccc(Oc2ncc(F)cc2F)cn1)[C@H]1CCC(F)(F)[C@@H](c2ccc(=O)[nH]c2)C1 = ≤ 10 nM
• CC(C(=O)Nc1cnc(Oc2ccc(F)cc2)cn1)C1CCC[C@@H](c2ccc(=O)[nH]c2)C1 (stereo partly shown) = 10 to 100 nM
• CC(Oc1ccc(NC(=O)C(C)N2CCC(F)(F)[C@@H](c3ccc(=O)[nH]c3)C2)nc1)C1CC1 (stereo partly shown) = 100 to 3160 nM
• C[C@@H](C(=O)Nc1cnc(Oc2ccc(F)cc2F)cn1)[C@H]1CCC[C@@H](c2ccc(=O)[nH]c2)C1 = ≤ 10 nM
• C[C@@H](C(=O)Nc1cnc(Oc2ccc(F)cc2F)cn1)N1CCC[C@@H](c2cc[n+]([O-])cc2)C1 = 10 to 100 nM

###

# Target or test system: human MRGPRX2 (Homo sapiens, UniProt Q96LB1)
# Assay notes: Ca2+ mobilization assay (FLIPR TETRA): inhibition of Cortistatin-14 mediated MRGPRX2 activation
Collected IC50 values appear next to each entry.
Measured quantity: IC50

• C[C@@H](C(=O)Nc1ccc(C(=O)c2ccc(F)cc2)cn1)N1CCC(F)(F)[C@@H](c2cc[n+]([O-])cc2)C1 [Example 128] = 100 to 3160 nM
• C[C@@H](C(=O)Nc1ccc(Oc2ccc(F)cc2F)cn1)N1CCC(F)(F)[C@@H](c2c[nH]c(=O)c(CNC3CC(F)(F)C3)c2)C1 [Example 241] = ≤ 10 nM
• C[C@@H](C(=O)Nc1ccc(Oc2ccc(F)cc2F)cn1)N1CCC(F)(F)C(c2cncc(C(O)C(F)(F)F)c2)C1 (mixture of isomers) [Example 265] = ≤ 10 nM
• CC(C(=O)Nc1ccc(Oc2ccc(C#N)cc2)cn1)N1CCC(F)(F)C(c2ccc(=O)[nH]c2)C1 (stereo not shown) [Example 58] = 100 to 3160 nM
• Cc1cc([C@@H]2CN([C@H](C)C(=O)Nc3ccc(Oc4ccc(F)cc4)cn3)CCC2(F)F)cc[n+]1[O-] (racemic) [Example 218] = 10 to 100 nM
• C[C@@H](C(=O)Nc1ccc(C2CC2)cn1)N1CCC(F)(F)[C@@H](c2ccc(=O)[nH]n2)C1 [Example 147] = 100 to 3160 nM
• C[C@@H](C(=O)Nc1ccc(Oc2ccc(F)cc2F)cn1)[C@H]1CCC[C@@H](c2cc[n+]([O-])cc2)C1 [Example 289] = ≤ 10 nM
• CC(C(=O)Nc1cc(F)c(F)cn1)N1CCC(F)(F)[C@@H](c2ccc(=O)[nH]c2)C1 (stereo partly shown) [Example 39] = 100 to 3160 nM
• C[C@@H](C(=O)Nc1ccc(Oc2ccc(F)cn2)cn1)N1CCC(F)(F)[C@@H](c2c[nH]c(=O)c(CO)c2)C1 [Example 157] = 10 to 100 nM
• C[C@@H](C(=O)Nc1ncc(OCC2CC2)cn1)N1CCC(F)(F)[C@@H](c2ccc(=O)[nH]c2)C1 [Example 35] = 100 to 3160 nM
• C[C@@H](C(=O)Nc1ccc(Oc2ccc(F)cn2)cn1)[C@H]1CCC[C@@H](c2ccc(=O)[nH]c2)C1 [Example 283] = ≤ 10 nM
• CC(C(=O)Nc1ccc(OCC(F)F)cn1)N1CCC(F)(F)[C@@H](c2ccc(=O)[nH]c2)C1 (stereo partly shown) [Example 49] = 100 to 3160 nM
• C[C@@H](C(=O)Nc1ccc(OCC2CC2)nn1)N1CCC(F)(F)[C@@H](c2cc[n+]([O-])cc2)C1 (single isomer, unassigned) [Example 109] = 100 to 3160 nM

###

# Target or test system: human MRGPRX2 (Homo sapiens)
# Assay notes: Ca2+ mobilization assay (FLIPR TETRA): inhibition of Cortistatin-14 mediated MRGPRX2 activation
Collected IC50 values appear next to each entry.
Measured quantity: IC50

• C[C@@H](C(=O)Nc1ccc(Oc2ccccc2)nn1)N1CCC(F)(F)[C@@H](c2ccc(=O)[nH]c2)C1 = 100 to 3160 nM
• CC(C(=O)Nc1ccc(OC2CCCCC2)cn1)N1CCC(F)(F)[C@@H](c2ccc(=O)[nH]c2)C1 (stereo partly drawn) = 100 to 3160 nM
• C[C@@H](C(=O)Nc1cnc(Oc2c(F)cccc2F)cn1)N1CCC(F)(F)[C@@H](c2cc[n+]([O-])cc2)C1 = ≤ 10 nM
• C[C@@H](C(=O)Nc1ccc(C(F)(F)c2ccc(F)cc2)cn1)N1CCC(F)(F)[C@@H](c2ccc(=O)[nH]c2)C1 = 10 to 100 nM
• Cc1cc(C2CN([C@@H](C)C(=O)Nc3ccc(F)cn3)CCC2(F)F)cn(CC(F)(F)F)c1=O (stereo partly drawn) = 3160 to 31600 nM
• C[C@@H](C(=O)Nc1ccc(OCC2CC2)cn1)N1CCC(F)(F)[C@@H](c2ccc(=O)n(CC(F)(F)F)c2)C1 (single isomer, unassigned) = ≤ 10 nM
• C[C@@H](C(=O)Nc1ccc(Cl)cn1)N1CCC[C@@H](c2ccc(=O)[nH]c2)C1 = 100 to 3160 nM
• CC(C(=O)Nc1ccc(OC2CC3(CCC3)C2)cn1)N1CCC(F)(F)[C@@H](c2ccc(=O)[nH]c2)C1 (stereo partly drawn) = 100 to 3160 nM
• C[C@@H](C(=O)Nc1ccc(Oc2ccc(F)cn2)cn1)[C@H]1CCC(F)(F)[C@@H](c2cc[n+]([O-])cc2)C1 = ≤ 10 nM
• C[C@@H](C(=O)Nc1ccc(F)cn1)N1CCC(F)(F)[C@@H](c2cc[n+]([O-])cc2)C1 = 100 to 3160 nM
• C[C@@H](C(=O)Nc1ccc(OCC2CC2)cn1)N1CCC[C@@](O)(c2ccc(=O)[nH]c2)C1 (single isomer, unassigned) = 3160 to 31600 nM
• C[C@@H](C(=O)Nc1ccc(OCC2CC2)nn1)N1CCC(F)(F)[C@@H](c2c[nH]c(=O)c(CN3CCOCC3)c2)C1 (single isomer, unassigned) = 100 to 3160 nM
• CC(C(=O)Nc1ccc(OC2CC3(CCC3)C2)nn1)N1CCC(F)(F)[C@@H](c2ccc(=O)[nH]c2)C1 (stereo partly drawn) = 100 to 3160 nM
• CC(N)c1cc(C2CN([C@@H](C)C(=O)Nc3ccc(OCC4CC4)nn3)CCC2(F)F)c[nH]c1=O (stereo partly drawn) = 10 to 100 nM
• C[C@@H](C(=O)Nc1cc(F)c(OCC2CC2)cn1)N1CCC(F)(F)[C@@H](c2ccc(=O)[nH]c2)C1 = 10 to 100 nM
• CC(C(=O)Nc1ccc(Oc2ccccc2)cn1)N1CCC(F)(F)C(c2c[nH]c(=O)c(CN)c2)C1 (stereo not drawn) = ≤ 10 nM
• CC(C(=O)Nc1ccc(C(=O)OC2CC2)cn1)N1CCC(F)(F)[C@@H](c2ccc(=O)[nH]c2)C1 (stereo partly drawn) = 100 to 3160 nM
• C[C@@H](C(=O)Nc1ccc(Oc2cccnc2)cn1)N1CCC(F)(F)[C@@H](c2ccc(=O)[nH]c2)C1 = 100 to 3160 nM
• CC(C(=O)Nc1ccc(F)cn1)N1CCC(F)(F)C(c2cc[n+]([O-])c(C(O)C(F)(F)F)c2)C1 (stereo not drawn) = 10 to 100 nM
• C[C@@H](C(=O)Nc1cnc(Oc2cc(F)c(F)cc2F)cn1)N1CCC(F)(F)[C@@H](c2cc[n+]([O-])cc2)C1 = ≤ 10 nM
• C[C@@H](C(=O)Nc1ccc(C(=O)OC2CCC2)cn1)N1CCC(F)(F)[C@@H](c2ccc(=O)[nH]c2)C1 = 100 to 3160 nM
• C[C@@H](C(=O)Nc1ccc(OCC(C)(C)C)nn1)N1CCC(F)(F)[C@@H](c2ccc(=O)[nH]c2)C1 = 100 to 3160 nM
• C[C@@H](C(=O)Nc1ccc(Cl)cn1)N1CCC(F)(F)[C@@H](c2cc[n+]([O-])cc2)C1 = 100 to 3160 nM
• C[C@@H](C(=O)Nc1ccc(Oc2ccc(F)cc2)cn1)N1CCC(F)(F)[C@@H](c2c[nH]c(=O)c(CO)c2)C1 = ≤ 10 nM
• C[C@@H](C(=O)Nc1ccc(Oc2ccc(F)cc2F)cn1)[C@H]1CCC(F)(F)[C@@H](c2cc[n+]([O-])cc2)C1 = ≤ 10 nM
• C[C@@H](C(=O)Nc1ccc2c(n1)CN(C1CC1)C2)N1CCC(F)(F)[C@@H](c2ccc(=O)[nH]c2)C1 = 100 to 3160 nM
• C[C@@H](C(=O)Nc1ccc(Oc2ncc(F)cc2F)cn1)[C@H]1CCC(F)(F)[C@@H](c2cc[n+]([O-])cc2)C1 = ≤ 10 nM

All figures here come from patent US11976057B2.
